- assay_remarks: 14-day oral toxicity study toxicokinetics in Sprague-Dawley rats
- Assay type: in vivo
- condition_label: female, rat, plasma, 1000 mg/kg/day, female, Day 0, 1,000 mg/kg/day, range

molecule | Tmax
O=C(Nc1ccnc(C(F)(F)F)c1)c1cnn(-c2cccc3c(=O)[nH]ccc23)c1C(F)(F)F [Compound A] | 2 to 4 h

----------
- assay_remarks: Preliminary food effect assessment at steady state
- Format: in vivo, human
- condition_label: human, plasma, oral, 100 mg, 2 × 50 mg, fed condition (high-fat meal), steady state; individual values, N = 2; read-out: Cmax

structure_notation | Cmax
O=C(Nc1ccnc(C(F)(F)F)c1)c1cnn(-c2cccc3c(=O)[nH]ccc23)c1C(F)(F)F | 13400 ng/mL

----------
- assay_remarks: Serum and tumor levels after multiple oral doses in male OCI-LY3 tumor-bearing NSG mice
- Type: in vivo
- condition_label: male, NSG, mouse, tumor and serum; 100 mg/kg twice daily PO, Day 5, 12 h post dose; mean (SD); read-out: Tumor: serum ratio
measured_metric: Kp at 12 h

structure_notation | observed
O=C(Nc1ccnc(C(F)(F)F)c1)c1cnn(-c2cccc3c(=O)[nH]ccc23)c1C(F)(F)F | 1.3

----------
- assay_remarks: 14-day oral toxicity study toxicokinetics in Sprague-Dawley rats
- Assay type: in vivo
- condition_label: male, rat, plasma, 1000 mg/kg/day, male (4M), Day 13, 1,000 mg/kg/day, mean, read-out: AUC0-24 h
measured_metric: AUC(0-t) (µg·h/mL)

compound | display_unit | observed
O=C(Nc1ccnc(C(F)(F)F)c1)c1cnn(-c2cccc3c(=O)[nH]ccc23)c1C(F)(F)F [Compound A] | µg·h/mL | 898

----------
- assay_remarks: Serum concentration after 28 days of oral dosing in male OCI-LY3 tumor-bearing NSG mice
- Format: in vivo
- condition_label: mouse, 100 mg/kg BID PO 28 days, 4 h post last dose, mean
- Protocol: For study 3, animals were randomly assigned into treatment groups, when the OCI-LY3 mean tumor volume was 164 mm^3 (Day 32 post-tumor cell implantation). Treatment was initiated on the day of randomization (Day 32). After 28 days of treatment on Day 60, serum was collected at 2, 4, and 12 hours post last dose for the bid treated groups or 2, 4 and 24 hours post last dose for qd treated groups in cohorts of 5 mice. […]
measured_metric: concentration at 4 h (ng/mL)

structure_notation | observed
O=C(Nc1ccnc(C(F)(F)F)c1)c1cnn(-c2cccc3c(=O)[nH]ccc23)c1C(F)(F)F | 12800

----------
- assay_remarks: Serum concentration after 28 days of oral dosing in male OCI-LY3 tumor-bearing NSG mice
- Assay type: in vivo
- condition_label: mouse, 60 mg/kg QD PO 28 days, 2 h post last dose, mean

structure_notation | concentration at 2 h, ng/mL
O=C(Nc1ccnc(C(F)(F)F)c1)c1cnn(-c2cccc3c(=O)[nH]ccc23)c1C(F)(F)F | 16000

----------
- assay_remarks: Serum concentration after 28 days of oral dosing in male OCI-LY3 tumor-bearing NSG mice
- Assay type: in vivo
- condition_label: mouse, 1 mg/kg BID PO 28 days, 4 h post last dose, mean

structure_notation | concentration at 4 h
O=C(Nc1ccnc(C(F)(F)F)c1)c1cnn(-c2cccc3c(=O)[nH]ccc23)c1C(F)(F)F | 526 ng/mL

----------
- assay_remarks: FIH study 67856633LYM1001 plasma pharmacokinetics
- Type: in vivo, human
- condition_label: human, plasma, oral, 400 mg, Cycle 1 Day 1, 50 mg capsule, cohort 8 × 50 mg; mean; read-out: AUCτ
measured_metric: AUC (µg·h/mL)

structure_notation | observed
O=C(Nc1ccnc(C(F)(F)F)c1)c1cnn(-c2cccc3c(=O)[nH]ccc23)c1C(F)(F)F | 131
